tested on: SF-268; assay: NCI tumour cell line growth inhibition, 48 h
Active and inactive are the calls of the source. Cut-off read from the data, not from the text of the source: active = GI50 up to about 1.1 µM and inactive = higher.
quantity_kind: GI50

[[record]]
compound = "S=C1Nc2ccccc2SC1c1ccccc1 (centres undefined)"
meas_value = "30.3 µM (inactive)"

[[record]]
compound = "C1=N\\CCN2CCN(CC/N=C\\c3ccc(cc3)OCc3cccc(n3)COc3ccc/1cc3)CC2"
meas_value = "> 50 µM (inactive)"

[[record]]
compound = "O=C(CSCC(=O)N/N=C/c1ccc(F)cc1)N/N=C/c1ccc(F)cc1"
meas_value = "> 100 µM (inactive)"

[[record]]
compound = "CC(C)(C)NNC(=O)/C(=C/c1ccc([N+](=O)[O-])cc1)NC(=O)c1ccccc1"
meas_value = "55.8 µM (inactive)"

[[record]]
compound = "CC1(C)OC[C@@H]([C@H](C=O)OCc2ccccc2)O1"
meas_value = "> 100 µM (inactive)"

[[record]]
compound = "COc1ccc(/C=c2/sc3n(c2=O)C(c2ccccc2)C2(O)CCCCC2N=3)cc1 (centres undefined)"
meas_value = "> 12.5 µM (inactive)"

[[record]]
compound = "c1ccc2c(CC3NCCN3)cccc2c1"
meas_value = "> 100 µM (inactive)"

[[record]]
compound = "COc1ccc(Nc2nc3c(N)cc(C(F)(F)F)cc3nc2-c2ccccc2)cc1"
meas_value = "75.7 µM (inactive)"

[[record]]
compound = "C/C(=N\\NC(=O)c1ccncc1)c1cccc(F)c1"
meas_value = "> 10 µM (inactive)"

[[record]]
compound = "O=[N+]([O-])c1nccn1CCCNCCCn1ccnc1[N+](=O)[O-]"
meas_value = "> 100 µM (inactive)"

[[record]]
compound = "Cc1cccc2c1CC(C1OC(=O)c3c(C)cccc31)C2=O (centres undefined)"
meas_value = "> 100 µM (inactive)"

[[record]]
compound = "COc1cccc(NC(=O)CC(=O)NN2C(=O)/C(=C/c3ccc(N(CCC#N)CCC#N)cc3)N=C2c2cc([N+](=O)[O-])ccc2Cl)c1"
meas_value = "> 100 µM (inactive)"

[[record]]
compound = "O=c1c(-c2ccccc2)c2oc(c1-c1ccccc1)CSCc1cccc(c1)CSC2"
meas_value = "30.5 µM (inactive)"

[[record]]
compound = "O=C1C=C/C(=N/c2cccc3c(/N=C4/C=CC(=O)O4)cccc23)O1"
meas_value = "52.6 µM (inactive)"

[[record]]
compound = "Cc1cccc2c1CCC21OC(=O)c2c1ccc1ccccc21 (centres undefined)"
meas_value = "> 100 µM (inactive)"

[[record]]
compound = "CC1OC2OC3C(OCC(O)C3O)OC(=O)[C@]34CCC(C)(C)CC3C3=CCC5[C@@]6(C)C[C@H](O)[C@H](OC7OC(CO)C(O)C(O)C7OC7OC(COC(=O)CC(C)(O)CC(=O)OC1C(OC1OC(CO)C(O)C(O)C1O)C2O)C(O)C(O)C7O)[C@@](C)(CO)C6CC[C@@]5(C)[C@]3(C)CC4 (some centres undefined)"
meas_value = "2.94 µM (inactive)"

[[record]]
compound = "CCC(C)N1CN(c2ccccc2)C2(CCN(CC3COc4ccccc4O3)CC2)C1=O (centres undefined)"
meas_value = "48 µM (inactive)"

[[record]]
compound = "CC[C@@]1(O)C(=O)OCc2c1c(Cl)c1n(c2=O)Cc2cc3ccccc3nc2-1"
meas_value = "1.31 µM (inactive)"

[[record]]
compound = "CC(Nc1ncc2c(n1)-c1ccccc1OC2)C(=O)O (centres undefined)"
meas_value = "> 100 µM (inactive)"

